Assay Remarks: Pharmacokinetics after intraperitoneal administration in female SCID mice (plasma, LC-MS/MS, non compartmental analysis)
Assay type: in vivo
Assay Conditions: 20 mg/kg IP, plasma, t½α (0 -> 6 h)
Readout: T1/2α (min)

Answered cases to consult:
Molecule: O=C(/C=C/c1cccnc1)NCCCCC1CCN(C(=O)c2ccccc2)CC1 [FK866, reference compound]
Quantity Unit: min
T1/2α: 27.6
//
Molecule: O=C(/C=C/c1cccnc1F)NCCCCC1CCN(C(=O)c2cccs2)CC1
Quantity Unit: min
T1/2α: 21.6

[P] O=C(/C=C/c1cccnc1F)NCCCCC1CCN(C(=O)c2ccccc2)CC1
[Q] N#C/N=C(\NC/C=C/CCC1CCN(C(=O)c2ccco2)CC1)Nc1ccncc1
[in] Parameter check: reported T1/2α is higher for which label, P or Q ? Which one? Tell me its label.
[out] P
(P: 27.6 min, Q: 18.6 min)
